# target.under.test: C5 (Homo sapiens)
# Sequence (P01031 19-1676): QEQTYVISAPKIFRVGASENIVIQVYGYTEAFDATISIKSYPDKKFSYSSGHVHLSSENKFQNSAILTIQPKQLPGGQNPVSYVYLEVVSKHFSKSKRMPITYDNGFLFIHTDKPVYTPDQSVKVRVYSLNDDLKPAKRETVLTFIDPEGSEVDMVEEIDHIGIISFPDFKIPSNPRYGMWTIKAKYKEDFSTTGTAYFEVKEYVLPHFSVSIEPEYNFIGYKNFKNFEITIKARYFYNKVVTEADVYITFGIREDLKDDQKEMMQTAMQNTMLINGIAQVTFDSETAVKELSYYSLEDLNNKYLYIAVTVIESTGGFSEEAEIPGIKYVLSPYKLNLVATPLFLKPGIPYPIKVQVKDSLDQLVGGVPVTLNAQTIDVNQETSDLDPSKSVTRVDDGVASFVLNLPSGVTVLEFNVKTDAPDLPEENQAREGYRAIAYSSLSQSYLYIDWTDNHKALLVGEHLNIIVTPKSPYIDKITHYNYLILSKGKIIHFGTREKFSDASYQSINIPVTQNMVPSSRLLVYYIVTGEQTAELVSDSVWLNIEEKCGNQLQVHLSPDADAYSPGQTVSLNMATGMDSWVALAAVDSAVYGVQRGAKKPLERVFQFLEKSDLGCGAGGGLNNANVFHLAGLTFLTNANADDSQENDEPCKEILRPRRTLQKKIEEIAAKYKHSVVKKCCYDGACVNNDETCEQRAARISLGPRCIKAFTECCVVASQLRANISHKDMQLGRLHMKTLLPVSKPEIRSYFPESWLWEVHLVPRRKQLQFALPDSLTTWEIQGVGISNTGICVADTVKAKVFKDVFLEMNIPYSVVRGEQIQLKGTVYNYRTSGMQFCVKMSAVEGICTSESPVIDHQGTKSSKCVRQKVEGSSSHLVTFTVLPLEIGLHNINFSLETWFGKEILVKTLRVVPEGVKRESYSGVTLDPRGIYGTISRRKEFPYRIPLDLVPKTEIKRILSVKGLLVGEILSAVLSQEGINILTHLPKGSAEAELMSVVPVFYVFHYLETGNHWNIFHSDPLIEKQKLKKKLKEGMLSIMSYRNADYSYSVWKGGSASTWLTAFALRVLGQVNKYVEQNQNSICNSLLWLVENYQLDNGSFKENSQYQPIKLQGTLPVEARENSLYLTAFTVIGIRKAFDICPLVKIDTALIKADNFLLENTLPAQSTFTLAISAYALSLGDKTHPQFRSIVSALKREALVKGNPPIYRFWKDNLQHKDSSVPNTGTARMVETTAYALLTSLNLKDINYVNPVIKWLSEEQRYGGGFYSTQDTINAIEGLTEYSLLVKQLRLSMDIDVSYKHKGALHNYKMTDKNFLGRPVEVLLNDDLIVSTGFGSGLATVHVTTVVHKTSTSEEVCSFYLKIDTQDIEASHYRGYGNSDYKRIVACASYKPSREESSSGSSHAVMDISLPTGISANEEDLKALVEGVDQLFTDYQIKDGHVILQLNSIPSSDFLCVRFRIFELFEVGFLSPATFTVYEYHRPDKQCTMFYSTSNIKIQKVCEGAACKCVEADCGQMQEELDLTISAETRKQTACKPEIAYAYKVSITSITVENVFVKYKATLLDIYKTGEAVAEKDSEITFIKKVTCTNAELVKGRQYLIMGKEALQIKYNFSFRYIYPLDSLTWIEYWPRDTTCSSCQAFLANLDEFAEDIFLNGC
# experiment.summary: Human hemolysis assay (RBC lysis assay using complete human sera)
# Type: cell-based
# Parameters: with complete human sera (Complement Technology, Tyler Tex.) and polypeptides; tissue Complement Technology, Tyler Tex; host or cells: complete human serum
# run.conditions: inhibition of lysis of antibody-sensitized sheep erythrocytes, complete human sera
Starred links: 1 amine or outer side, 2 acyl side, 3 side chain; linkers in the order of their positions; H or OH if unused. Positions of bridges follow the written chain, without caps; N, C: chain ends. Residues, ends and D or L forms follow the SMILES beside them. mXylylene = c1cc(C[*:1])cc(C[*:2])c1
measure.name: IC50

Input line: Requested read-out IC50, target or system C5 (Homo sapiens), entry CSCC[C@H](N)C(=O)N[C@H]1CSCc2cccc(c2)CSC[C@@H](C(=O)N[C@@H](CC(=O)O)C(=O)N[C@H](C(=O)N[C@@H](Cc2ccc(O)cc2)C(=O)N[C@@H](Cc2c[nH]c3ccccc23)C(N)=O)C(C)C)NC(=O)[C@H](Cc2ccccc2)NC(=O)[C@H](CCCNC(=N)N)NC(=O)[C@H](CCC(=O)O)NC(=O)[C@H](C(C)C)NC1=O [Compound R3044, [mXylyl(2,7)]M-C-V-E-R-F-C-D-V-Y-W-NH2] (H-MCVERFCDVYW-NH2; linker 2-7 via mXylylene)
Output line: > 50 µM

The reported numbers originate from patent US10208089B2.
